biological target: VZV polymerase (Varicella-zoster virus); assay: VZV polymerase assay (Table 1); format: biochemical
Sequence (P09252 whole entry): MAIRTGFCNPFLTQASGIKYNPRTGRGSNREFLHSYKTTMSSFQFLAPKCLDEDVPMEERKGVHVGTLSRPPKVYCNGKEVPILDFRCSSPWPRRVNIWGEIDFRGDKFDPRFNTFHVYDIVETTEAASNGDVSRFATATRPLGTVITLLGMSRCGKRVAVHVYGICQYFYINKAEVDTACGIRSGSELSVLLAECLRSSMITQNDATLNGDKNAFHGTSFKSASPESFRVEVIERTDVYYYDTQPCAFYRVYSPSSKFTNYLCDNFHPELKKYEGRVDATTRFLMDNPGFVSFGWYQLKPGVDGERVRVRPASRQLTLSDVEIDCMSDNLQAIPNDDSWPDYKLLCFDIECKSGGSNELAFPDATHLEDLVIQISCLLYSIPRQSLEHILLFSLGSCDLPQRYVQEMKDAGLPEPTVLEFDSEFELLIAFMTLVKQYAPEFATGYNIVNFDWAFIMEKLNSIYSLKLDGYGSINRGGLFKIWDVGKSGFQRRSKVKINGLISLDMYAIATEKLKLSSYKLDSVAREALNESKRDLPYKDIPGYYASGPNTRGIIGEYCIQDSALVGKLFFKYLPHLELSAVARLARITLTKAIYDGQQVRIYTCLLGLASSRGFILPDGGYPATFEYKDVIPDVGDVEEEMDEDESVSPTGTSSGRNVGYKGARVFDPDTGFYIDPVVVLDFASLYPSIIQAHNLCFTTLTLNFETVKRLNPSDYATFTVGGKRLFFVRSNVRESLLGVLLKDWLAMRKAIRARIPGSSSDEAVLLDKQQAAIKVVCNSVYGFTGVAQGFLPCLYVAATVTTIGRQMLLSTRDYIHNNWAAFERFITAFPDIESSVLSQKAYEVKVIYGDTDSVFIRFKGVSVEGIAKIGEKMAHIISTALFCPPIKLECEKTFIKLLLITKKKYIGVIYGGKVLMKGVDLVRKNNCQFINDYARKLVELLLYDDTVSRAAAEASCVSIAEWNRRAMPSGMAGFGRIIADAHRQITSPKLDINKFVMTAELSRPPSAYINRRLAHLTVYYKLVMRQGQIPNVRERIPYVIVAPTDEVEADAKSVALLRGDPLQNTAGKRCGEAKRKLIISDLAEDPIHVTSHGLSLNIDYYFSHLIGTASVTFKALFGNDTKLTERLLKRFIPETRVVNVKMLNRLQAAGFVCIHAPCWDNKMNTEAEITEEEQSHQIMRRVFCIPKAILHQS
Quantity name: IC50 (nM)
Output spec: scalar in nM, unitless text.

[Q] Item under review: CN(Cc1cc2c(=O)c(C(=O)NCc3ccc(Cl)cc3)cn(CCCO)c2s1)C[C@@H](O)c1ccco1 . Reported IC50?
[A] 280

* * *

Readings of pIC50 for the listed molecules
molecular target: UniProt P09252; experiment: VZV polymerase assay (Table 1); type: biochemical; conditions: VZV polymerase; read-out: Polymerase IC50 VZV
# pIC50 is unitless: minus log10 of the molar concentration; print number only

Please review the following examples before continuing.
Molecule: CN(Cc1cc2c(=O)c(C(=O)NCc3ccc(Cl)cc3)cn(C)c2s1)CC(O)c1ccc(-c2ccccc2)o1 (racemic) [Example 31]
pIC50: 7.22
//
Molecule: CN(Cc1cc2c(=O)c(C(=O)NCc3ccc(Cl)cc3)cn(C)c2s1)CC(O)c1ccc[nH]1 (racemic) [Example 7]
pIC50: 6.48

[Q] Item under review: CN(Cc1cc2c(=O)c(C(=O)NCc3ccc(Cl)cc3)cn(C)c2s1)CC(O)c1nccs1 (racemic) [Example 16] . Reported pIC50?
[A] 6.72

[Q] Item under review: CN(Cc1cc2c(=O)c(C(=O)NCc3ccc(Cl)cc3)cn(C)c2s1)CC(O)c1c[nH]cn1 (racemic) [Example 10] . Reported pIC50?
[A] 6.36

[Q] Item under review: Cc1cc(C(O)CN(C)Cc2cc3c(=O)c(C(=O)NCc4ccc(Cl)cc4)cn(C)c3s2)oc1C (racemic) [Example 30] . Reported pIC50?
[A] 6.70

[Q] Item under review: CN(Cc1cc2c(=O)c(C(=O)NCc3ccc(Cl)cc3)cn(C)c2s1)CC(O)c1ccco1 (racemic) [Example 1] . Reported pIC50?
[A] 7.22

[Q] Item under review: Cc1ccc(C(O)CN(C)Cc2cc3c(=O)c(C(=O)NCc4ccc(Cl)cc4)cn(C)c3s2)o1 (racemic) [Example 3] . Reported pIC50?
[A] 6.89

[Q] Item under review: CCn1cc(C(=O)NCc2ccc(Cl)cc2)c(=O)c2cc(CN(C)C[C@@H](O)c3ccco3)sc21 [Example 20] . Reported pIC50?
[A] 6.70

* * *

biological target: VZV polymerase (Varicella-zoster virus); experiment: VZV polymerase assay (Table 1); type: biochemical; conditions: VZV polymerase; read-out: Polymerase IC50 VZV
Quantity name: pIC50
# pIC50 is unitless: minus log10 of the molar concentration; print number only

Please review the following examples before continuing.
Molecule: CN(Cc1cc2c(=O)c(C(=O)NCc3ccc(Cl)cc3)cn(C)c2s1)CC(O)c1c[nH]c2ccccc12 (racemic) [Example 11]
Quantity name: pIC50
Test value: 7.05

Molecule: CN(Cc1cc2c(=O)c(C(=O)NCc3ccc(Cl)cc3)cn(C)c2s1)CC(O)c1ccn[nH]1 (racemic) [Example 18]
Quantity name: pIC50
Test value: 6.43

Molecule: CN(Cc1cc2c(=O)c(C(=O)NCc3ccc(Cl)cc3)cn(C)c2s1)CC(O)c1csc2ccccc12 (racemic) [Example 13]
Quantity name: pIC50
Test value: 6.36

Molecule: CCn1cc(C(=O)NCc2ccc(Cl)cc2)c(=O)c2cc(CN(C)CC(O)c3cc4ccccc4o3)sc21 (racemic) [Example 22]
Quantity name: pIC50
Test value: 7.10

Molecule: CN(Cc1cc2c(=O)c(C(=O)NCc3ccc(Cl)cc3)cn(C)c2s1)CC(O)c1nc2ccccc2s1 (racemic) [Example 17]
Quantity name: pIC50
Test value: 6.96

[Q] Item under review: CN(Cc1cc2c(=O)c(C(=O)NCc3ccc(Cl)cc3)cn(CCO)c2s1)C[C@@H](O)c1ccco1 [Example 34] . Reported pIC50?
[A] 6.47

[Q] Item under review: CN(Cc1cc2c(=O)c(C(=O)NCc3ccc(Cl)cc3)cn(C)c2s1)C[C@@H](O)c1ccn[nH]1 (single isomer, unassigned) [Example 19] . Reported pIC50?
[A] 6.54
